SYSTEM: T1, recombinant cynomolgus CFD, His-tagged (cynomolgus)
T1 construct: also called rcyCFD-His; recombinant Cyno-CFD
ASSAY METHOD TEXT: SPR MX96
ASSAY ENDPOINT: pKd
pKd (log units): -log10 of the concentration in mol/L.

Look over these answered cases.
>  <BINDER>
KCD047 (antibody, V domains shown, chimeric) VH: EVQLQQSGAEFVKPGASVRLSCTASGFNIKDTYMHWVKQRPEQGLEWIGRIDPANGYTKDDPKFQGKATITADTSSNTAYLQLSSLTSEDTAVYYCASAMDYWGQGTSVTVSS VL: QIVLTQSPAVMSASPGEKVAMTCSASSSVTYMYWYQQKPGSSPRLLIYDTSNLASGVPVRFSGSGSGTSYSLTISRMEAEDAATYYCQQWSTYPFPFGSGTKLEIK

>  <TEST VALUE>
6.80

$$$$
>  <BINDER>
KCD063 (antibody, V domains shown) VH: EVKLVESGGGLVQPGGSLKLSCAASGFIFSSYIMSWVRQTPEKRLEWVAYITNGGGSTYYPDTVKGRLTISRDNAKNTLYLQMSSLKSEDTAMYYCVRHAHYYAMDYWGQGTSVTVSS VL: DIQMTQSPSSLSASLGGKVTITCKASQDINKYITWYQHKPGKGPRLLIHYTSTLQPGIPSRFSGSGSGRDYSFSISNLEPEDIATYYCLQYDNLLYTFGGGTKLEIK

>  <TEST VALUE>
7.62

$$$$
>  <BINDER>
KCD112 (antibody, V domains shown) VH: EVQLQQSGPELVKPGASVKISCKASGYSFTAYYMNWVKHSPEKSLEWIGDINPSTGGTTYNQKFKARATLTVDKSSSTAYMQLKSLTSEDSAVYYCATTYYSGNSYVGFAYWGQGTLVTVSA VL: DIVMTQSHKFMSTSVGDRVSITCKASQDVSTAVAWYQQKPGQSPKLLIFWTSTRHTGVPDRFTGSGSGTDYTLTISSVQAEDLALYYCQQHYTTPWTFGGGTKLEIK

>  <TEST VALUE>
8.04

$$$$
>  <BINDER>
KCD121 (antibody, V domains shown, chimeric) VH: EVQLQQSGPELVKPGASVKISCKASGYTFTDYYKNWMRQRHGESLEWIGDINPNNGDTSYNQKFRGKATLTVDKSSSTAFMELRSLTSEDSAVYYCAREGPSFAYWGQGTLVTVSA VL: DVLMTQTPLSLPVSLGDQASISCRSNQTIVHSNGDTYLEWYLQKPGQSPNLLIYKVSNRFSGVPDRFSGSGSGTDFTLRISRVEAEDLGVYYCFQGSHVPPTFGGGTKLEIK

>  <TEST VALUE>
8.54

$$$$
>  <BINDER>
KCD115 (antibody, V domains shown) VH: EVQLQQSGPELVKPGASVKISCKASGYSFTGYYMNWVKQSPEKSLEWIGDINPSTGGTTYNQKFKAKATLTVDKSSSTAYMQLKSLTSEDSAVYYCATPYYYGSSYVGFAYWGQGTLVTVSA VL: DIVMTQSHKFMSTSVGDRVSITCKASQDVSTAVDWYQQKPGQSPKLLIYWASTRHTGVPDRFTGSGSGTDYTLTISSVQAEDLALYYCQQHYSTPWTFGGGTKLEIK

>  <TEST VALUE>
7.74

$$$$

## Input Complete the entry with pKd for KCD057 (antibody, V domains shown) VH: EVKLVESGGGLVQPGGSLKLSCAASGFTFSNYIMSWVRQTPEKRLEWVAYITNGGGATYYPDTVKGQFTISRDNAKNTLYLQMSSLKSEDTAIYYCARHDFYALDFWGQGTSVTVSS VL: DIQMTQSPSSLSASLGGKVTITCKASQDINKYIAWYQHKPGKGPRLLIHYTSTLQPGIPSRFSGSGSGRDYSFSISNLEPEDIATYYCLKYDNLLYTFGGGTKLEIK
## Output 8.51

## Input Complete the entry with pKd for KCD220 (antibody, V domains shown, chimeric) VH: QVQLQQSGAELMEPGASVKLSCKATGYTFTGYWIEWVKQRPGHGLEWIGETLPGSDSNNYNEKFKGKATFTADTSSNTAYMQLSSLTTEDSAIYYCARDYSNYWYFDVWGTGTTVTVSS VL: DIQMTQTTSSLSASLGDRVTISCRASQDISNYLNWYQQKPDGTVKLLIYYTSNLHSGVPSRFSGSGSGTDYSLTISNLEQEDIATYFCQQDSKHRTFGGGTKLEIK
## Output 9.55

## Input Complete the entry with pKd for KCD023 (antibody, V domains shown, chimeric) VH: EVLLQQSGPELVKPGASVKIPCKASGYTFTDYNIDWVKQSHGKSLEWIGDINPNNGGINYNQKFKGKATLTVDKSSSTAYMELRSLTSEDTAVYYCGTGDYAYWGQGTLVTVSA VL: QIVLTQSPAFMSASPGEKVTLTCSASSSVSSSYLYWYQQKPGSSPKLWIYSTSNLASGVPGRFSGSGSGTSYSLTISSMEAEDAASYFCHQWTSYPPTFGAGTKLELK
## Output 8.22

## Input Complete the entry with pKd for KCD205 (antibody, V domains shown) VH: EVQLQQSGAELVRPGSSVKMSCKTSGNTFTSHGINWVKQRPGQGLEWIGYIYIGNGYNEYNEKFKGKATLTSDTSSSTAYMQLSSLTSEDSAIYFCVRKAYGNYGFDDWGQGTTLTVSS VL: DIQMTQSPSSLSASLGERVSLTCRASQEISGYLSWLQQKPDGTIKRLIYAASTLDSGVPKRFSGSSSGSDYSLTISSLESDDFADYYCLQYASYPFTFGSGTKLEIK
## Output 8.48

## Input Complete the entry with pKd for KCD036 (antibody, V domains shown, chimeric) VH: EVQLQQSGPELVKPGASMKISCKASGYSFTGYTMTWVKQSHGKNLEWIGLINPYNGGTNYNQKFKGKATFTVDKSSSTAYMELLSLTSEDSAVYYCARRHYGSSWDYWGQGTTLTVSS VL: DIKLTQSPSSMYASLGERVTITCKASQDINTYLSWFQQKPGKSPKTLIYRANRLVDGVPSRFSGSGSGQDYSLTISSLEYEEMGIYYCLQYDEFPYTFGGGTKLEIK
## Output 7.19
